systemUnderTest: CDK2/CyclinE (Homo sapiens)
assayExplanation: CDK2/CyclinE Flashplate assay, 96-well format, biotinylated-Rb peptide substrate
# Lookup of reported IC50 keyed by entry

molecule=O=C(NCCCCO)Nc1nc2cc(OS(=O)(=O)c3ccc(NC4CCCC4)cc3)ccc2[nH]1 result="2 nM"

-- ask Given the entry `COC(=O)Nc1nc2cc(OS(=O)(=O)c3cccc(OC(F)(F)F)c3)ccc2[nH]1` , report its measured IC50.
-- reply 1500 nM

-- ask Moving on to CCN1CCCC1CNC(=O)Nc1nc2cc(OS(=O)(=O)c3ccc(NC4CCCC4)cc3)ccc2[nH]1 (stereo not shown)
-- reply 30 nM

-- ask Moving on to `O=C(NCc1ccccc1)Nc1nc2cc(OS(=O)(=O)c3ccc(NC4CCCC4)cc3)ccc2[nH]1`
-- reply 30 nM

Just for reference, patent US20050014811A1 is where these values come from.
